Tested on: HSV-1
Assay: HSV-1 replication in infected Vero 76 cells, viral DNA detected by hybridization capture
Assay type: cell-based, herpes simplex virus 1
Details: Human alphaherpesvirus 1; HSV-1, Vero 76 cells, MOI=0.001, 40-48 hours incubation
Description: Vero 76 cells were maintained in MEM with Earle's salts, L-glutamine, 8% FBS (Hyclone, A-1111-L) and 100 units/mL Penicillin-100 μg/mL Streptomycin. For assay conditions, FBS was reduced to 2%. Cells are seeded into 96-well tissue culture plates at a density of 5×10^4 cells/well after being incubated for 45 min at 37° C. in the presence of HSV-1 or HSV-2 (MOI=0.001). Test compounds are added to the wells and the plates are incubated at 37° C. for 40-48 hours. […]
Exam item: assign true to entries whose IC50 is below 100 nM and false to entries at or above 100 nM. Note that a value of exactly 100 nM receives false.

Prompt: Could you please tell me whether IC50 recorded for COc1ccc(-c2nn3c(SC(C)C)cc(NC4CCCC4)cc3c2-c2ccnc(NC3CCCC3)n2)cc1 is less than 100 nM?
Completion: false

Prompt: Can you check CC(C)Sc1cc(NC2CCCC2)cc2c(-c3ccnc(NC4CCCC4)n3)c(-c3ccc(F)cc3)nn12 next?
Completion: false

Prompt: // query: Cc1cc(NC2CCCC2)cc2c(-c3ccnc(NC4CCCC4)n3)c(-c3ccc(F)cc3)nn12
Completion: false

Prompt: Cool, now CCSc1cc(NC2CCCC2)cc2c(-c3ccnc(NC4CCCC4)n3)c(-c3ccc(OC)cc3)nn12
Completion: true

Prompt: Record: CCOc1cc(NC2CCCC2)cc2c(-c3ccnc(NC4CCCC4)n3)c(-c3ccc(F)cc3)nn12
Completion: false

Prompt: Would you mind doing COc1ccc(-c2nn3c(Sc4ccccc4)cc(NC4CCCC4)cc3c2-c2ccnc(NC3CCCC3)n2)cc1 as well?
Completion: false

Prompt: Then CSc1cc(NC2CCCC2)cc2c(-c3ccnc(NC4CCCC4)n3)c(-c3ccc(F)cc3)nn12 ?
Completion: false

Prompt: What about CCSc1cc(NC2CCCC2)cc2c(-c3ccnc(NC4CCCC4)n3)c(-c3ccc(F)cc3)nn12 ?
Completion: true

Prompt: Try this compound too: COc1ccc(-c2nn3c(SC)cc(NC4CCCC4)cc3c2-c2ccnc(NC3CCCC3)n2)cc1
Completion: false

Prompt: Now give it for COCCOc1cc(NC2CCCC2)cc2c(-c3ccnc(NC4CCCC4)n3)c(-c3ccc(F)cc3)nn12 too.
Completion: true
